Entry source: patent US20260102359A1

- Tested on: hDMFa myofibroblast cells
Structures can show the parent of a compound that is named as a salt.
propertyLabel: Compound Myofibroblast Cytotoxicity Activity

{"columns": ["compound", "endpointResult"],
 "data": [
  ["CC(CN1c2ccccc2Sc2ccccc21)N(C)C (centres unmarked) [Cmpd 801, Promethazine HCl]", "++"],
  ["CCCCCCCC/C=C\\CCCCCCCC(=O)OCC(C[N+](C)(C)C)OC(=O)CCCCCCC/C=C\\CCCCCCCC.[Cl-] (centres unmarked) [Cmpd 33]", "+++"],
  ["Cc1cc(N)c2ccccc2[n+]1CCCCCCCCCC[n+]1c(C)cc(N)c2ccccc21 [Cmpd 340, Dequalinium Chloride]", "++"],
  ["C=C1CC[C@H](O)C/C1=C/C=C1\\CCC[C@]2(C)[C@@H]([C@H](C)/C=C/[C@H](C)C(C)C)CC[C@@H]12 [Cmpd 1008, Vitamin D2 (Ergocalciferol)]", "+++"],
  ["C/C=C/C=C/C(=O)O [Cmpd 881, Sorbic acid]", "++"],
  ["NC(=O)c1ccc(I)c([N+](=O)[O-])c1 [Cmpd 531, Iniparib (BSI-201)]", "+++++"],
  ["O=NN(CCCl)C(=O)NCCCl [Cmpd 218, Carmustine]", "++"],
  ["O=C(O)[C@@H]1CCCN1 [Cmpd 612, L-Proline]", "++++"]
]}

###

- System: hDMFa myofibroblast cells
Structures can show the parent of a compound that is named as a salt.
propertyLabel: Compound Myofibroblast Cytotoxicity Activity

{"columns": ["compound", "endpointResult"],
 "data": [
  ["Nc1ncnc2c1ncn2[C@@H]1O[C@H](COP(=O)(O)OP(=O)(O)OP(=O)(O)O)[C@@H](O)[C@H]1O [Cmpd 91, Adenosine 5-triphosphate]", "+++"],
  ["CCCCC(=O)O[C@]1(C(=O)CO)[C@@H](C)C[C@H]2[C@@H]3CCC4=CC(=O)C=C[C@]4(C)[C@@]3(F)[C@@H](O)C[C@@]21C [Cmpd 176, Betamethasone Valerate]", "++"],
  ["O=C(c1ccc(OCCN2CCCCC2)cc1)c1c(-c2ccc(O)cc2)sc2cc(O)ccc12 [Cmpd 819, Raloxifene HCl]", "++++"],
  ["COc1ccc2[n-]c([S+]([O-])Cc3ncc(C)c(OC)c3C)nc2c1.COc1ccc2[n-]c([S+]([O-])Cc3ncc(C)c(OC)c3C)nc2c1.[Mg+2] (stereo not shown)", "++"],
  ["NCC(=O)O", "++++"],
  ["CC(C)(C)c1ccc(S(=O)(=O)/C=C/C#N)cc1", "+++++"],
  ["CC(C)(C)c1cc(NC(=O)Nc2ccc(-c3cn4c(n3)sc3cc(OCCN5CCOCC5)ccc34)cc2)no1", "++++"],
  ["COc1cccc2c1cc([N+](=O)[O-])c1c(C(=O)O)cc3c(c12)OCO3", "++"],
  ["CN1CCN(CCCN2c3ccccc3Sc3ccc(Cl)cc32)CC1", "+++++"],
  ["O=C(O)c1cc(-c2ccc(F)cc2F)ccc1O", "++"],
  ["O=c1ccn([C@@H]2O[C@H](COP(=O)([O-])OP(=O)([O-])OP(=O)([O-])O)[C@@H](O)[C@H]2O)c(=O)[nH]1.[Na+].[Na+].[Na+] [Cmpd 990, UTP, Trisodium Salt]", "++"],
  ["OC1(c2ccc(Cl)c(C(F)(F)F)c2)CCN(CCCC(c2ccc(F)cc2)c2ccc(F)cc2)CC1", "+++"],
  ["COc1ccc2[n-]c([S@@+]([O-])Cc3ncc(C)c(OC)c3C)nc2c1.COc1ccc2[n-]c([S@@+]([O-])Cc3ncc(C)c(OC)c3C)nc2c1.O.O.O.[Mg+2] [Cmpd 428, Esomeprazole Magnesium trihydrate]", "++"]
]}
